biological target: T1, recombinant human endotrophin (77 amino acids at the carboxy-terminal of the COL6α3 chain, HEK293-expressed, … (human, UniProt P12111 3101-3177)); assay: BLI (Octet RED96), antibody on protein A biosensors, endotrophin 0.1-200 nM, 1:1 fit
T1 construct: the His-tag was removed by enterokinase, leaving the 77 amino acid endotrophin free of tags; also called ETP; recombinant endotrophin protein
T1 sequence (P12111 3101-3177 limits assumed): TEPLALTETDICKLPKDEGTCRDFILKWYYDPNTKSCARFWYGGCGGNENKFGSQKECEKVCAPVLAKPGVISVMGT
RECORDED_METRIC: Kd (nM)
Numeric answer only, unit nM assumed.

Here's what some known entries look like.
BINDER: ETP-mAb4.2 (humanized ETP-hMab4) (antibody, human IgG1, V domains shown, also called ENT-hMab4.2) VH: EVQLLESGGGLVQPGGSLRLSCAASGFSFSSGYYICWVRQAPGKGLEWIACIYGGNSNPYYANWVNGRFTISRDNSKNTLYLQMNSLRAEDTAVYYCARKDINIGGAYELWGQGTLVTVSS VL: DIQMTQSPSSLSASVGDRVTITCQASQSISSSYLSWYQQKPGKAPKLLIYKASTLASGVPSRFSGSGSGTDFTLTISSLQPEDFATYYCQYSDWANSYGNAFGGGTKVEIK
RECORDED_METRIC: Kd
OBSERVED: 2.48
//
BINDER: ETP-mAb4.4 (humanized ETP-hMab4) (antibody, human IgG1, V domains shown, also called ENT-hMab4.4) VH: EVQLLESGGGLVQPGGSLRLSCAASGFSFSSGYYICWVRQAPGKGLEWIACIYGGNNNPYYANWVNGRFTTSRDNSKNTLYLQMNSLRAEDTAVYYCARKDINIGGAYELWGQGTLVTVSS VL: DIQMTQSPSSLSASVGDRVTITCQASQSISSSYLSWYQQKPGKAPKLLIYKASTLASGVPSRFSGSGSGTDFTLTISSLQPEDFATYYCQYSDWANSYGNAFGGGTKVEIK
RECORDED_METRIC: Kd
OBSERVED: 2.53

Continue with the next binder.
q: Name the recorded Kd for ETP-mAb4.5 (humanized ETP-hMab4) (antibody, human IgG1, V domains shown, also called ENT-hMab4.5) VH: EVQLLESGGGLVQPGGSLRLSCAASGFTFSSGYYICWVRQAPGKGLEWIACIYGGNSNPYYANWVNGRFTISRDNSKNTLYLQMNSLRAEDTAVYYCARKDINIGGAYELWGQGTLVTVSS VL: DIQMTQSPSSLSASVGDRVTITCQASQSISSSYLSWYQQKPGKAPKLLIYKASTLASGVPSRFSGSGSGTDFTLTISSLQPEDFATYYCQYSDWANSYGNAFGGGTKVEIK .
a: 1.92
